inhibition overview
# Tested On: Serine/threonine-protein kinase pim-1 (Homo sapiens) (UniProt P11309);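 note: reported value is the mean inhibition of PIM1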
# Sequence (P11309 whole entry, looked up): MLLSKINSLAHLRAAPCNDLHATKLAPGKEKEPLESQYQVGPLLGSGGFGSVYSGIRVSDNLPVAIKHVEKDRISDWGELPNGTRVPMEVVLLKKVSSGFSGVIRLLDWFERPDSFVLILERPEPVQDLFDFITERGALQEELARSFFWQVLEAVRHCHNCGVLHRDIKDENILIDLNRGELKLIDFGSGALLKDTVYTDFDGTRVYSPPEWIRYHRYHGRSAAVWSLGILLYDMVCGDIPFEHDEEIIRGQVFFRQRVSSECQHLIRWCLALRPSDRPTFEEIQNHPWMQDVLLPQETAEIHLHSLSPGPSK
# Assay Context: at 0.1 µM

| Record Smiles | inhibition / % |
| --- | --- |
| COc1cccc(-c2c[nH]c3c(N/N=C/c4ccncc4)ncnc23)c1 | 1.65 |
| CNC(=O)c1cc(-c2ccc(F)cc2)cc(-c2ccc(S(=O)(=O)N3CCCC3)cc2)c1N | 0.06 |
| COc1cccc(-n2ncc3c(N/N=C/c4ccc(F)cc4)ncnc32)c1 | 1.15 |
| COC(=O)c1sc(-n2cnc3cc(OC)c(OC)cc32)cc1OCc1ccccc1C(F)(F)F | 0.49 |
| c1ccc(COc2ccc(Nc3ncnc4ccc(-c5ccco5)cc34)cc2)cc1 | -1.26 |
| CCCN(CCS(C)(=O)=O)Cc1ccc(-c2ccc3ncnc(Nc4ccc(OCc5cccc(F)c5)c(Cl)c4)c3c2)o1 | 0.83 |
| COc1ccc(-c2oc3ncnc(N)c3c2-c2ccc(NC(=O)Nc3cc(C(F)(F)F)ccc3F)cc2)cc1 | -0.3 |
| COc1cc(/C=N/Nc2ncnc3[nH]ncc23)ccc1O | 1.55 |
| CCn1cc(-c2ccnc3[nH]ccc23)c(-c2cccc(NC(=O)Nc3ccc(OCc4ccccc4)cc3)c2)n1 | -0.93 |
| COc1cc(N2CCN(C(C)C)CC2)ccc1Nc1nc(Nc2ccc(F)cc2C(N)=O)c2cc[nH]c2n1 | 3.27 |
| N#Cc1c(NC(=O)CN2CCOCC2)sc2c1CCCC2 | 0.03 |
| COc1ccc(-c2cc(-c3c[nH]nc3-c3ccccn3)ccn2)cc1 | -0.05 |
| COc1ccc(-c2nn3ncccc3c2-c2ccnc(Nc3ccc4c(c3)OCCO4)n2)cc1 | 0.46 |
| Cc1ccc(O)cc1Nc1ccnc2cc(-c3ccccn3)ccc12 | 0.67 |
| CN1CCC(n2cnc(-c3ccc(F)cc3)c2-c2ccnc(Nc3ccccc3)n2)CC1 | 0.38 |
| CC(=O)Nc1cccc(C#Cc2cncnc2Nc2ccc(OCc3cccc(F)c3)c(Cl)c2)c1 | 1.32 |
| O=S(=O)(CCNCc1ccc(-c2ccc3ncnc(Nc4ccc(OCc5cccc(F)c5)c(Cl)c4)c3c2)o1)c1ccccc1 | -0.13 |
| CNC(=O)c1cccc(C#Cc2cncnc2Nc2ccc(OCc3cccc(F)c3)c(Cl)c2)c1 | 0.55 |
| COc1cc2c(cc1Nc1nc(Nc3ccsc3C(N)=O)c3cc[nH]c3n1)N(C(=O)CN(C)C)CCC2(C)C | 68.4 |

====

# Tested On: Dual specificity tyrosine-phosphorylation-regulated kinase 1B (Homo sapiens) (UniProt Q9Y463);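 note: values are mean percent inhibition of DYRK1B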
# Sequence (Q9Y463 whole entry, looked up): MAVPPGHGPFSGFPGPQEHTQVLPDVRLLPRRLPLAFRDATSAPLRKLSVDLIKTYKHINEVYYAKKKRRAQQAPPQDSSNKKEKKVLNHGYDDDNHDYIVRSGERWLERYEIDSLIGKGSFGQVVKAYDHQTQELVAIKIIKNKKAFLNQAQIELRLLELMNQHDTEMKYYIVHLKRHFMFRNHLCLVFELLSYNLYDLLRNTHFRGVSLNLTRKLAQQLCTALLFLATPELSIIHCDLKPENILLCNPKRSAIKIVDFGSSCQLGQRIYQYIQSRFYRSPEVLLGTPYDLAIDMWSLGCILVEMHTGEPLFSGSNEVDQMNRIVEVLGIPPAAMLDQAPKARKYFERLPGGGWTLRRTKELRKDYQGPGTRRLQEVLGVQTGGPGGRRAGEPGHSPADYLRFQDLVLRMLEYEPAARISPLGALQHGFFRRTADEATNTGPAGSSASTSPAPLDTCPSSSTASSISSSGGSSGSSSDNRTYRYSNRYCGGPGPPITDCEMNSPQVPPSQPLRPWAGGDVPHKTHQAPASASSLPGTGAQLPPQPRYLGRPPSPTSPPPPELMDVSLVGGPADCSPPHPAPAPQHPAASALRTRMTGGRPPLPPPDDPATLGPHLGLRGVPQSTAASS
# Assay Context: at 0.1 µM
Quantity Name: inhibition (%)

| Record Smiles | Observed Measurement |
| --- | --- |
| Cc1ccc(O)cc1Nc1ccnc2cc(-c3ccccn3)ccc12 | 0.53 |
| COc1cc2ncn(-c3cc(OCc4ccccc4C(F)(F)F)c(C(=O)N(C)C)s3)c2cc1OC | 0.5 |
| NS(=O)(=O)c1ccc(N/N=C2\C(=O)Nc3ccc4ncccc4c32)cc1 | 13 |
| CCN(CC)S(=O)(=O)c1ccc(OC)c(Nc2ncc(-c3ccccc3)o2)c1 | 1.93 |
| COc1ccc(-c2cc3c(N)ncnc3o2)cc1 | 5.2 |
| Nc1nc(-c2ccc(F)cc2)c(-c2ccc3ncccc3n2)s1 | 3.54 |

====

# Tested On: Tyrosine-protein kinase ABL2 (Homo sapiens) (UniProt P42684)
# Sequence (P42684 whole entry): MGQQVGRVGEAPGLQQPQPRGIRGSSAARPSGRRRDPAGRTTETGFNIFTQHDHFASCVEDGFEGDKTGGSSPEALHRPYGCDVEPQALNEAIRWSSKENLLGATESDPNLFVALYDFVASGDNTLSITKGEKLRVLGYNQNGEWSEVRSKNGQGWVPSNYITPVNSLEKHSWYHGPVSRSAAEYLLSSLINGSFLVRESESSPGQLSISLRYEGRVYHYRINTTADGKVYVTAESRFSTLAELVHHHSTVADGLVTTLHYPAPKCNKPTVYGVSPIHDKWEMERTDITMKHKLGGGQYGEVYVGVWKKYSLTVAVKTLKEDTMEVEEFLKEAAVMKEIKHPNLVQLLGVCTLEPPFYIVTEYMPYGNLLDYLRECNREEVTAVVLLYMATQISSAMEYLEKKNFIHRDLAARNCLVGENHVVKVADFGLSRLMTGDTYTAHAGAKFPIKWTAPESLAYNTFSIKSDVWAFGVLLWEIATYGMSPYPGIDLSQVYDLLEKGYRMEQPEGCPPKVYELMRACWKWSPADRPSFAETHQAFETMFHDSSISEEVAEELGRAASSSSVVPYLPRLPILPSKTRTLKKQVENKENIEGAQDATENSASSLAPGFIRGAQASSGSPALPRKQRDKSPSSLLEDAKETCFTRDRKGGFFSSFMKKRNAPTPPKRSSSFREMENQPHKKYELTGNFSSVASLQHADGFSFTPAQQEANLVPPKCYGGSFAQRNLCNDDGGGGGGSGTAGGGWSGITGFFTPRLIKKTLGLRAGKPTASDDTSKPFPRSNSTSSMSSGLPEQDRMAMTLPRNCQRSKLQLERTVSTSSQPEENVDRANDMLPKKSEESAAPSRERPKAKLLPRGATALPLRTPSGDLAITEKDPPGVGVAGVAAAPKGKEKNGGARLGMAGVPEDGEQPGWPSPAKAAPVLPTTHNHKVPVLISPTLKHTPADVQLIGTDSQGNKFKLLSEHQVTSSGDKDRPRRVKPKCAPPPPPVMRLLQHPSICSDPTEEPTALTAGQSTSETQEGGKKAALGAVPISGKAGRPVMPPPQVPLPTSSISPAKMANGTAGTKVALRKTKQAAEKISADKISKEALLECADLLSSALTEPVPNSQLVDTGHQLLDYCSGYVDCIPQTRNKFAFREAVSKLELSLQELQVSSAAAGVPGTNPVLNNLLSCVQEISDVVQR
# Assay Context: at 1 µM
# Description: GSK_PKIS: ARG mean inhibition at 1 uM [Nanosyn]
Respond with Met for inhibition values of 10% and above, Not met for values below.

| Molecule | Qualitative Label |
| --- | --- |
| Nc1nc(-c2ccc(F)cc2)c(-c2ccc3ncccc3n2)s1 | Met |
| CNC(=O)c1cccc(C#Cc2cncnc2Nc2ccc(OCc3cccc(F)c3)c(Cl)c2)c1 | Not met |
| CC1=C(C(=O)Nc2cc(Cl)c3[nH]ncc3c2)C(c2ccc(C(F)(F)F)cc2)CC(=O)N1 (stereo not given) | Not met |
| COc1ccc(-c2oc3ncnc(N)c3c2-c2ccc(NC(=O)Nc3cc(C(F)(F)F)ccc3F)cc2)cc1 | Met |
| COc1ccc(-c2cc(-c3c[nH]nc3-c3ccccn3)ccn2)cc1 | Met |
| O=C(O[C@H]1CN[C@H](C#Cc2cc3ncnc(Nc4ccc(Cc5ccccc5)cc4)c3s2)C1)N1CCOCC1 | Not met |
| N#Cc1c(NC(=O)c2ccc(F)cc2)sc2c1CCCC2 | Not met |
| c1cc(-c2cnn3nc(N4CCOCC4)ccc23)nc(NC2CC2)n1 | Not met |
| COc1ccc(CNC(=O)c2ccc(-c3cc(-c4nnc(C)o4)ccc3C)cc2)cc1 | Not met |
| CCn1cc(-c2ccnc3[nH]ccc23)c(-c2cccc(NC(=O)Nc3ccc(OCc4ccccc4)cc3)c2)n1 | Not met |
| CCn1c(-c2nonc2N)nc2cnc(Oc3cccc(NC(=O)c4ccc(N(C)C)cc4)c3)cc21 | Not met |
| CCN1CCC(CC(=O)Nc2n[nH]c3nnc(-c4cccc(F)c4F)cc23)CC1 | Not met |
| COc1cc(Nc2nccc(Nc3ccc4c(C)n[nH]c4c3)n2)cc(OC)c1OC | Met |
| COC(=O)Nc1nc2ccc(S(=O)(=O)c3ccc(NC(=O)Nc4cc(C(F)(F)F)ccc4F)cc3)cc2[nH]1 | Not met |
| COC(=O)c1sc(-n2cnc3cc(OC)c(OC)cc32)cc1OCc1ccccc1C(F)(F)F | Not met |
| CN1CCC(n2cnc(-c3ccc(F)cc3)c2-c2ccnc(N)n2)CC1 | Not met |
| CNC(=O)c1cncc(/C=C/c2ccccc2Cl)c1 | Met |
| COc1cc(/C=N/Nc2ncnc3[nH]ncc23)ccc1O | Met |
| CNC(=O)c1cc(-c2ccc(F)cc2)cc(-c2ccc(S(=O)(=O)N3CCCC3)cc2)c1N | Not met |
